- experimental_details: Antiproliferative activity against p53 defective cis-platinum-resistant human IGROV1/Pt1 cells assessed as growth inhibition after 72 hrs
- Format: functional, cell-based
- condition_set: IGROV-1/Pt1, 72 h
pIC50: −log10 of the molar value.

| structure_as_smiles | pIC50 |
| --- | --- |
| COc1ccc(-c2ccc(/C=C/C(=O)NO)cc2)cc1C12CC3CC(CC(C3)C1)C2 | 5.74 |
| O=C(/C=C/c1ccc(-c2ccc(O)c(C34CC5CC(CC(C5)C3)C4)c2)c(Cl)c1)NO | 5.80 |
| COc1ccc(-c2ccc3cc(C(=O)NO)ccc3c2)cc1C12CC3CC(CC(C3)C1)C2 | 5.38 |
| O=C(/C=C/c1ccc(-c2ccc(O)c(C34CC5CC(CC(C5)C3)C4)c2)cc1)NO | 5.89 |
| COc1ccc(-c2ccc(/C=C/C=C/C(=O)NO)cc2)cc1C12CC3CC(CC(C3)C1)C2 | 5.69 |
| O=C(/C=C/c1ccc(-c2cccc(C34CC5CC(CC(C5)C3)C4)c2)cc1)NO | 5.24 |
| O=C(NO)c1ccc2cc(-c3ccc(O)c(C45CC6CC(CC(C6)C4)C5)c3)ccc2c1 | 5.96 |
| O=C(/C=C/c1ccc(-c2cc3c(c(C45CC6CC(CC(C6)C4)C5)c2)OCCO3)cc1)NO | 6.10 |
| O=C(/C=C/c1ccc(-c2ccccc2)cc1)NO | 5.37 |
